Target under test: GABA-A receptor; alpha-2/beta-3/gamma-2 (Homo sapiens, UniProt P18507+P28472+P47869)
Sequence (P18507 whole entry): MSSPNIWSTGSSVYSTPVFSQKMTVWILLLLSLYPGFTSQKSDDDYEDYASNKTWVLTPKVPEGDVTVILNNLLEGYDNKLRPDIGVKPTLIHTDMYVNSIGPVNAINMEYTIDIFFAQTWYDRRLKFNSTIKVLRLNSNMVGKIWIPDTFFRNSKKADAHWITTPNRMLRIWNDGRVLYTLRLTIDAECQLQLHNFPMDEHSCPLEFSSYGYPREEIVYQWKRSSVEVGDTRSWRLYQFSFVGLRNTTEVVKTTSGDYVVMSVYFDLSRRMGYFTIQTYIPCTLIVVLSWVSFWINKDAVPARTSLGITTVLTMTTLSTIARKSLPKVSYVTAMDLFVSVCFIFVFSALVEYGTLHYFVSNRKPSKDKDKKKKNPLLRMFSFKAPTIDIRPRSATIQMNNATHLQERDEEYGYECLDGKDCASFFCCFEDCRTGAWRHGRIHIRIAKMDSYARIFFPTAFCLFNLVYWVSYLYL
Sequence (P28472 whole entry): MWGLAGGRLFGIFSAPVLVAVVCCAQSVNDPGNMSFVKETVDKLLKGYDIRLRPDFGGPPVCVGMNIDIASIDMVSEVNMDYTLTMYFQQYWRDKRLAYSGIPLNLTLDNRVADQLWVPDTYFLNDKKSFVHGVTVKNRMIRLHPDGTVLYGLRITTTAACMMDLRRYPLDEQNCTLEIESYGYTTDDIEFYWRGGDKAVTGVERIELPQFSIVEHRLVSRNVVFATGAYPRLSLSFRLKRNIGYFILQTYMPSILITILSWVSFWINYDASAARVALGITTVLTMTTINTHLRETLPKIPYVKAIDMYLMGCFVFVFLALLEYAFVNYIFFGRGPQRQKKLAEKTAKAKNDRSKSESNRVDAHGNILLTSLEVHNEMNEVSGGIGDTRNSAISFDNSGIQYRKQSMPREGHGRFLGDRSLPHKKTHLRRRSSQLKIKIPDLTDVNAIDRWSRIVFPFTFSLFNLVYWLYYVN
Sequence (P47869 whole entry): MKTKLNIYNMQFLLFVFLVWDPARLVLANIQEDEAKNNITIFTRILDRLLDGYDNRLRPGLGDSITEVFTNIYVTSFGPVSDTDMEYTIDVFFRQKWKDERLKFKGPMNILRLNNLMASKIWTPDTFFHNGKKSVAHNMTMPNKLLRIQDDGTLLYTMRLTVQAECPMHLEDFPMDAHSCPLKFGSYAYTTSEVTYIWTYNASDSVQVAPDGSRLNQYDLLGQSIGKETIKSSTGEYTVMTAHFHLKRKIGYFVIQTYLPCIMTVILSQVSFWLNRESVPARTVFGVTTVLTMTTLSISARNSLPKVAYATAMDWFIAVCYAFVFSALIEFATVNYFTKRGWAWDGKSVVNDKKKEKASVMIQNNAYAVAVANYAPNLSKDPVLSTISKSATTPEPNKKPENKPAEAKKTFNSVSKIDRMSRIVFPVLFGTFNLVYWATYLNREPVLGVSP
Assay method text: Displacement of [3H]flunitrazepam from human alpha2beta3gamma2 GABA receptor in Sf9 membranes after 1 hr by liquid scintillation counting
Measure name: Ki
Write the figure, then the unit, nothing else.

Completed entries (count: 3):
Nc1c2c(nc3c(-c4ncccn4)cccc13)CN(C1CCC1)C2=O | 8.3 nM
CCCNC(=O)c1nnc2c(-c3ncccn3)cccc2c1N | 380 nM
Nc1c2c(nc3c(-c4cncnc4)cccc13)CN(C1CCC1)C2=O | 1.5 nM

Shift focus to the following entry.
For CCCNC(=O)c1nnc2c(-c3ncccn3)c(F)ccc2c1N , what is its reported Ki?
6 nM

----------
Target under test: GABA-A receptor; alpha-2/beta-3/gamma-2 (Homo sapiens, UniProt P18507+P28472+P47869)
Assay method text: Binding affinity to human alpha2beta3gamma2 GABA receptor expressed in Xenopus laevis oocytes
Type: cell-based, Oocyte
Readings of EC50 for the listed molecules
Give the value, in units of nM, as a plain number.

Completed entries (count: 3):
CCCNC(=O)c1nnc2c(-c3ncccn3)cccc2c1N | 104
CCc1c(C(=O)OC)ncc2[nH]c3cc(OC)c(OC)cc3c12 | 14
Nc1c2c(nc3c(-c4ncccn4)cccc13)CN(C1CCC1)C2=O | 34

For CCCNC(=O)c1nnc2c(-c3cncc(C(=O)N4CCC4)c3)cccc2c1N , what is its reported EC50?
54

----------
Target under test: GABA-A receptor; alpha-5/beta-3/gamma-2 (Homo sapiens) (UniProt P18507+P28472+P31644)
Assay method text: Negative allosteric modulation of human alpha5beta3gamma2 GABA receptor expressed in Xenopus laevis oocytes at 1 uM
Format: cell-based
Condition label: Oocyte
Measure name: Activity (%)
Give the value, in units of %, as a plain number.

Completed entries (count: 2):
Nc1c(C(=O)NC2CC2)nnc2c(-c3ncccn3)cccc12 | 5
Nc1c2c(nc3c(-c4cncnc4)cccc13)CN(C1CCC1)C2=O | 2

For Nc1c(C(=O)N2CCC2)nnc2c(-c3ncccn3)cccc12 , what is its reported Activity?
22

For CC1CN(C(=O)c2nnc3c(-c4ncccn4)cccc3c2N)C1 , what is its reported Activity?
35

For Nc1c(C(=O)N2CC(F)(F)C2)nnc2c(-c3ncccn3)cccc12 , what is its reported Activity?
4

For CCCNC(=O)c1nnc2c(-c3ncccn3)c(F)ccc2c1N , what is its reported Activity?
3

For CCc1c(C(=O)OC)ncc2[nH]c3cc(OC)c(OC)cc3c12 , what is its reported Activity?
69

For CCCNC(=O)c1nnc2c(-c3cncc(C(=O)N4CCC4)c3)cccc2c1N , what is its reported Activity?
45
